# studySystem: T1, His-tagged human CTLA-4 (CT4-H5229; Acro Biosystems) (human, UniProt P16410 36-161)
# T1 construct: bought soluble protein; also called soluble human CTLA-4; recombinant human CTLA-4; not shown: His tag
# T1 sequence (P16410 36-161 limits assumed): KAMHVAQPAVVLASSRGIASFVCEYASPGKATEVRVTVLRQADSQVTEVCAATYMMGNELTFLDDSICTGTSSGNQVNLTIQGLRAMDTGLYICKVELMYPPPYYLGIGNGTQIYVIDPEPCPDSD
# assayDetails: SPR (Carterra), soluble human CTLA-4
readout: koff (s⁻¹)
One number for each entry, in s⁻¹.

binder	observedValue
antibody A8 (L8H8) (antibody, V domains shown, also called aCTLA-4.1) VH: QVQLVESGGGVVQPGRSLRLSCAASGFTFSRYGMHWVRQAPGKGLEWVAVIWYDGRNKYYADSVKGRFTISRDNSKNTLYLQMNSLRAEDTALYSCARAGELGPFDYWGQGTLVTVSS VL: EIVLTQSPGTLSLSPGERATLSCRASQSVSYLAWYQQKPGQAPRLLIYGASSRATGIPDRFSGSGSGTDFTLTISRLEPEDFAVYYCQQYGSSPWTFGQGTKVEIK	0.00039
antibody A5 (L5H5) (antibody, V domains shown, also called aCTLA-4.28; CTLA4.A5) VH: QVQLVESGGGVVQPGRSLRLSCAASGFTFSSYGMHWVRQAPGKGLEWVAVIWYDGNNKYYADSVKGRFTISRDNSKNTLYLQMYSLRAEDTAVYYCARGGILAAGIFDYWGQGTLVTVSS VL: EIVLTQSPGTLSLSPGDRATLSCRASQSGSSSYLAWYQQKPGQAPRLLIYGASSRATGIPDRFSGSGSGTDFTLTISRLEPEDFAVYYCQQYGTSPFTSGPGTKVDIK	0.00042
antibody A1 (L1H1) (antibody, V domains shown, also called aCTLA-4.9; CTLA4.A1) VH: QVQLVESGGGVVQPGRSLRLSCAASGFTFSSFGMHWVRQAPGKGLEWVAVIWYDGRNKYYVDSVKGRFTISRDNSNNTLYLQMNSLRAEDTAVYYCARGEFFGEFFDYWGQGTLVTVSS VL: EIVLTQSPGTLSLSPGEGATLSCRASQSFSSNYLAWYQQKPGQAPRLLIYGASSRATGIPDRFSGSGSGTDFTLTISRLEPEDFAVYYCQQYGTSPFTFGPGTKVDIK	0.00016

--- query ---
Specify measured koff for antibody A4 (L4H4) (antibody, V domains shown, also called aCTLA-4.29) VH: QVQLVESGGGVVQPGRSLRISCAASGFTFSSYGIHWVRQAPGKGLQWVAVIWYDGRNKYYADSVKGRFTISRDNSKNTLYLQMNSLRAEDTAVYYCSRSGSFGAFDIWGQGTMVTVSS VL: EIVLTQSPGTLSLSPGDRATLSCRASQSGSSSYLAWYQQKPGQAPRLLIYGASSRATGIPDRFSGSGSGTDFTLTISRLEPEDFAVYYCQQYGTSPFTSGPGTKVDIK .
0.00023

These data points were gathered from patent US20230265192A1.
